Assay: AC without DC offset (AC + passive) transport across human epidermal membrane in side-by-side diffusion cell
Assay type: in vitro ADME
Conditions: human; AC (50 Hz) w/o DC offset, target skin resistance 2 kΩ; one time point (180 min); 4 samples; read-out: Mannitol permeability coefficient, mean
measured-quantity: Papp at 180 min (×10⁻⁶ cm/s)
Return type: number; implicit unit ×10⁻⁶ cm/s.

Given OC[C@@H](O)[C@@H](O)[C@H](O)[C@H](O)CO , state its recorded Papp at 180 min.
0.101

* * *

Test: Constant current DC iontophoretic transport across human epidermal membrane in side-by-side diffusion cell
Conditions: human
measured-quantity: Papp at 180 min (×10⁻⁶ cm/s)
Answer format: numeric, ×10⁻⁶ cm/s implied, no suffix.

Item OC[C@@H](O)[C@@H](O)[C@H](O)[C@H](O)CO has what recorded Papp at 180 min?
0.15

* * *

Assay: AC without DC offset (AC + passive) transport across human epidermal membrane in side-by-side diffusion cell
Type: in vitro ADME
Details: human; AC (50 Hz) w/o DC offset, target skin resistance 2 kΩ; all data points from 100 to 330 min; 28 points (4 samples); read-out: TEA^+ permeability coefficient, mean
measured-quantity: Papp (×10⁻⁶ cm/s)
I only need the number, in ×10⁻⁶ cm/s, no unit after it.

Which value of Papp has been reported for CC[N+](CC)(CC)CC.[Br-] [TEA^+, tetraethylammonium bromide] in the records?
1.08

* * *

Experiment: AC + DC offset iontophoretic transport across human epidermal membrane in side-by-side diffusion cell
Format: in vitro ADME
Conditions: human; AC (50 Hz) with 0.25 V DC offset, target skin resistance 2 kΩ; one time point (180 min); 6 samples; read-out: Mannitol permeability coefficient, mean
measured-quantity: Papp at 180 min

What value of Papp at 180 min has been reported for the following molecule? OC[C@@H](O)[C@@H](O)[C@H](O)[C@H](O)CO [Mannitol, mannitol]
0.17 ×10⁻⁶ cm/s

* * *

Assay: AC + DC offset iontophoretic transport across human epidermal membrane in side-by-side diffusion cell
Type: in vitro ADME
Conditions: human; AC (50 Hz) with 0.25 V DC offset, target skin resistance 2 kΩ; all data points from 100 to 330 min; 36 points (6 skin samples); read-out: Mannitol permeability coefficient, mean
measured-quantity: Papp (×10⁻⁶ cm/s)
The response must be a number in ×10⁻⁶ cm/s with no trailing unit.

I'd like to know its Papp. The compound in question is OC[C@@H](O)[C@@H](O)[C@H](O)[C@H](O)CO
0.16

* * *

Assay: Constant current DC iontophoretic transport across human epidermal membrane in side-by-side diffusion cell
Conditions: human
measured-quantity: Papp (×10⁻⁶ cm/s)
# value in ×10⁻⁶ cm/s; strip the unit string

# query: Papp of entry OC[C@@H](O)[C@@H](O)[C@H](O)[C@H](O)CO [Mannitol, mannitol]
0.16

* * *

Assay: AC without DC offset (AC + passive) transport across human epidermal membrane in side-by-side diffusion cell
Type: in vitro ADME
Conditions: human; AC (50 Hz) w/o DC offset, target skin resistance 2 kΩ; all data points from 100 to 330 min; 28 points (4 skin samples); read-out: Mannitol permeability coefficient, mean
Source text: The same protocol was used to reduce the skin electrical resistance to 2 kΩ as described in the AC+DC Offset method. […] Permeants and sampling protocol were the same as in the Constant Current and AC+DC Offset sessions as described above.
measured-quantity: Papp
Write the figure, then the unit, nothing else.

What Papp value was documented for this compound, OC[C@@H](O)[C@@H](O)[C@H](O)[C@H](O)CO ?
0.0985 ×10⁻⁶ cm/s
